System: HFF-1 cells
methodSummary: Cytotoxicity, Sulforhodamine B assay
Type: cell-based, human
conditionContext: HFF-1 proliferation, 48-h incubation, 0.78 μM to 100 μM
endpoint: CC50 (µM)
Unit µM implied. Number only.

For record CC1(C)c2[nH]c3ccc(C(F)(F)F)cc3c2C[C@]2(C)[C@H]3C(=O)C=C4[C@@H]5C[C@@](C)(C(=O)O)CC[C@]5(C)CC[C@@]4(C)[C@]3(C)CC[C@@H]12 [FC-114, reference compound] the listed CC50 is 59.5

* * *

Would you mind telling me the reported pIC50 of each entry?
targetDesc: hPTP1B1–400 (Homo sapiens)
Construct: h PTP1B 1–400 IC 50 (μM ± S.D); made in house
Sequence (P18031 1-400): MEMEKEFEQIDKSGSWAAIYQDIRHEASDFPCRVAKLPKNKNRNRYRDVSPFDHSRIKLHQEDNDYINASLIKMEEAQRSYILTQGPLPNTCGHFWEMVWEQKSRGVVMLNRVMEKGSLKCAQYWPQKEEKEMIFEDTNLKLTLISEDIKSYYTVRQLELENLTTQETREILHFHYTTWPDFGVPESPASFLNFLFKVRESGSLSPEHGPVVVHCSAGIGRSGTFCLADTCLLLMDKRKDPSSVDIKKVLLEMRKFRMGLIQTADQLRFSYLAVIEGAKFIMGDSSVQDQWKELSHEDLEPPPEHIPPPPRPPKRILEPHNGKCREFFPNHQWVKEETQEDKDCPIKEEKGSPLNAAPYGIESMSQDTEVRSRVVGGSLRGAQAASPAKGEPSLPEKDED
methodSummary: PTP1B inhibition, pNPP hydrolysis, long form
Format: biochemical
conditionContext: pNPP substrate, 15 min 37 °C, pH 6.8; ± S.D
Experimental: The inhibitory activity of PTP1B was assessed using the long form of the PTP1B enzyme (hPTP1B1–400). […] Aliquots of 0–10 μL of the test compounds (triplicate) were taken and incubated for 15 min at 37 °C with 85 μL of Tris buffer solution (50 mM, pH 6.8) containing PTP1B enzyme and 5 μL of p-nitrophenyl phosphate substrate (pNPP, 10 mM). The absorbance of the hydrolysis product, p-nitrophenol (pNP), was measured at 405 nm using a 96-microplate absorbance reader (Accuris SmartReader 96). […]
# pIC50 is unitless: minus log10 of the molar concentration; print number only

Data point: CC1(C)c2[nH]c3ccc(C(F)(F)F)cc3c2C[C@]2(C)[C@H]3C(=O)C=C4[C@@H]5C[C@@](C)(C(=O)O)CC[C@]5(C)CC[C@@]4(C)[C@]3(C)CC[C@@H]12 [FC-114, reference compound] ; pIC50 = 5.76

pIC50 for CC1(C)c2c(cnn2-c2ccc(OC(F)(F)F)cc2)C[C@]2(C)[C@H]3C(=O)C=C4[C@@H]5C[C@@](C)(C(=O)O)CC[C@]5(C)CC[C@@]4(C)[C@]3(C)CC[C@@H]12 is 5.64

Entry CC1(C)c2[nH]c3ccc(C(N)=O)cc3c2C[C@]2(C)[C@H]3C(=O)C=C4[C@@H]5C[C@@](C)(C(=O)O)CC[C@]5(C)CC[C@@]4(C)[C@]3(C)CC[C@@H]12 — recorded pIC50 = 5.03

Data credit: paper PMC12921516
